The origin of these recorded values is patent US20050282743A1.

# system: T1, GST-MUPP1 PDZ domain 10 (Homo sapiens (Human)), O75970
# T1 chain: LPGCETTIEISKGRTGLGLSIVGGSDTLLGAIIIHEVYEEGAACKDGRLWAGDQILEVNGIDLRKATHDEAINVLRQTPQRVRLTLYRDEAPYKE
# protocol-notes: G' assay; also: key of the grades not given here
Provide the recorded Classification for the entries that follow.
Write it as a number; the unit A450 class goes unstated.

Inquiry: Query (binder): TQGFPGPATWRRISSLESEV (modifications not checked) [NMDA Glutamate Receptor 2C (cysteine-free)] ; field requested: Classification
Reply text: 1

Inquiry: Also SFTSILTCHQRRTQRKETVA (modifications not checked) [GluR5-2 (rat)] , if possible.
Reply text: 2

Inquiry: Also NGGFAVDKSDTISFTQTSQF (modifications not checked) [glutamate transporter 3] , if possible.
Reply text: 1
